Source: PubChem BioAssay AID1421

- target.system: Prostaglandin E2 receptor EP2 subtype (Homo sapiens)
- protocol: EP2 receptor modulators, dose response, cell-based, human EP2, PGE2 EC50 shift (AID 1421)
- condition.summary: EP2-expressing cells, PGE2 EC50 shift by compound; measured here: PGE2 EC50 at 6.7 uM compound
Rule: PGE2 EC50 with compound below 1 nM gives rule met. Equal to or above 1 nM gives rule not met.

>  <molecule>
CCOC(=O)C1CCN(c2c(C(=O)c3ccccc3)cnc3ccc(CC)cc23)CC1

>  <target.system>
Prostaglandin E2 receptor EP2 subtype (Homo sapiens)

>  <assigned.category>
rule met

$$$$
>  <molecule>
C/C(=N\N=C(c1ccccc1)c1ccccc1)c1ccco1

>  <target.system>
Prostaglandin E2 receptor EP2 subtype (Homo sapiens)

>  <assigned.category>
rule met

$$$$
>  <molecule>
COc1ccc(-c2nc3ccccc3n2Cc2ccccc2)cc1

>  <target.system>
Prostaglandin E2 receptor EP2 subtype (Homo sapiens)

>  <assigned.category>
rule not met

$$$$
>  <molecule>
CCSc1ccccc1C(=O)Nc1ccc([N+](=O)[O-])cc1OC

>  <target.system>
Prostaglandin E2 receptor EP2 subtype (Homo sapiens)

>  <assigned.category>
rule not met

$$$$
>  <molecule>
COc1ccc(-c2nnc(N3CCC(C)CC3)c3ccccc23)cc1

>  <target.system>
Prostaglandin E2 receptor EP2 subtype (Homo sapiens)

>  <assigned.category>
rule not met

$$$$

Criterion: PGE2 EC50 with compound strictly below 1 nM. Is it met by CCOC(=O)C1=C(CC)Nc2ccccc2N=C1NC(=O)c1oc2ccccc2c1C ?
rule not met
